Let's look at some binders and their measured relative binding ratio.
Molecular target: T1, Soluble CDCP1 extracellular domain (CDCP1-ECD) (SEQ ID NO:30) fused to Streptavidin Binding Protein (SBP) (human, UniProt Q9H5V8 30-663)
T1 construct: also called SBP-CDCP1-ECD
T1 sequence: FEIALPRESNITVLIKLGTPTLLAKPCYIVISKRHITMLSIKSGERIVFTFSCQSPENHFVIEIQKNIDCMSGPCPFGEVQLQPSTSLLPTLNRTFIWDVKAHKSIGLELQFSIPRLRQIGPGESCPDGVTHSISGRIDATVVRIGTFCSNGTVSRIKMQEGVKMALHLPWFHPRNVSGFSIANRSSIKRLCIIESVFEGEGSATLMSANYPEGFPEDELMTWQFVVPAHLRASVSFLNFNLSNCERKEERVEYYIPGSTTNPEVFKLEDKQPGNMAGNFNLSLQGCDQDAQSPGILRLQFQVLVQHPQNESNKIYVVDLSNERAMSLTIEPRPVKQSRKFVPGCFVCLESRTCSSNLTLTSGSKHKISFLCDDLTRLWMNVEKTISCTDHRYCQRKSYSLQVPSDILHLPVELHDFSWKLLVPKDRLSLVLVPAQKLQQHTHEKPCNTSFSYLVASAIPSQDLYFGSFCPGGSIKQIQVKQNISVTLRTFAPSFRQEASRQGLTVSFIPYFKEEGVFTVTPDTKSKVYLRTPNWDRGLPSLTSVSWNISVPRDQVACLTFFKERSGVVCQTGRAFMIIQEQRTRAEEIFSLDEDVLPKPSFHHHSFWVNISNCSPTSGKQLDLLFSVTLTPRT
Assay: ELISA on captured SBP-CDCP1-ECD, ratio relative to chimeric CUB4 (chHC4)

binder	relative binding ratio
hHC4-K / hLC4-J (antibody, V domains shown) VH: EVQLVESGGGLVKPGGSLRLSCAASGFTFNSYGMSWVRQAPGKGLEWVSSISSGGSYIYYADSVKGRFTISRDNAKNSLYLQMNSLRAEDTAVYYCARHPDYDGVWFAYWGQGTLVTVSS VL: EIVMTQSPATLSLSPGERATMSCRASSSVFYLHWYQQKPGQAPRLWIYDTSKLASGIPARFSGSGSGTDFTLTISSLQPEDFAVYYCQQWNSNPPTFGGGTKVEIK	0.01
hHC4-K2 / hLC4-b (antibody, V domains shown) VH: EVQLVESGGGLVKPGGSLRLSCAASGFTFNSYGMSWVRQAPGKGLEWVSSISSGGSYTYYADSVKGRFTISRDNAKNSLYLQMNSLRAEDTAVYYCARHPDYDGVWFAYWGQGTLVTVSS VL: EIVLTQSPATLSLSPGERATLSCSVSSSVFYVHWYQQKPGQAPRLLIYDTSKLASGIPARFSGSGSGTDYTLTISSLEPEDFAVYYCQQWNSNPPTFGGGTKVEIK	0.12
hHC4-d / hLC4-d (antibody, V domains shown) VH: EVQLLESGGGLVQPGGSLRLSCAASGFTFNSYGMSWVRQAPGKGLEWVSTISSGGSYTYYPDSVKGRFTISRDNSKNTLYLQMNSLRAEDTAVYYCAKHPDYDGVWFAYWGQGTLVTVSS VL: EIVMTQSPATLSVSPGERATLSCSVSSSVFYVHWYQQKPGQAPRLLIYDTSKLASGIPARFSGSGSGTEYTLTISSLQSEDFAVYYCQQWNSNPPTFGGGTKVEIK	0.41
hHC4-H / hLC4-d (antibody, V domains shown, also called Humanized CUB4 Antibody No. 124) VH: EVQLVESGGGLVQPGGSLRLSCAASGFTFNSYGMSWVRQAPGKGLEWVATISSGGSYKYYVDSVKGRFTISRDNAKNSLYLQMNSLRAEDTAVYYCARHPDYDGVWFAYWGQGTLVTVSS VL: EIVMTQSPATLSVSPGERATLSCSVSSSVFYVHWYQQKPGQAPRLLIYDTSKLASGIPARFSGSGSGTEYTLTISSLQSEDFAVYYCQQWNSNPPTFGGGTKVEIK	0.34
hHC4-d / hLC4-M (antibody, V domains shown) VH: EVQLLESGGGLVQPGGSLRLSCAASGFTFNSYGMSWVRQAPGKGLEWVSTISSGGSYTYYPDSVKGRFTISRDNSKNTLYLQMNSLRAEDTAVYYCAKHPDYDGVWFAYWGQGTLVTVSS VL: EIVLTQSPATLSLSPGERATMSCGASSSVFYLHWYQQKPGLAPRLWIYDTSKLASGIPDRFSGSGSGTDFTLTISRLEPEDFAVYYCQQWNSNPPTFGGGTKVEIK	0.8
